Target: 5-HT3 receptor (5-HT3A) (Homo sapiens, UniProt P46098, W85Y)
Construct: full-length cDNA in pcDNA3.1, transiently expressed in HEK293 cells; homopentamer (also in Xenopus oocytes)
Sequence (P46098 24-478 W85Y): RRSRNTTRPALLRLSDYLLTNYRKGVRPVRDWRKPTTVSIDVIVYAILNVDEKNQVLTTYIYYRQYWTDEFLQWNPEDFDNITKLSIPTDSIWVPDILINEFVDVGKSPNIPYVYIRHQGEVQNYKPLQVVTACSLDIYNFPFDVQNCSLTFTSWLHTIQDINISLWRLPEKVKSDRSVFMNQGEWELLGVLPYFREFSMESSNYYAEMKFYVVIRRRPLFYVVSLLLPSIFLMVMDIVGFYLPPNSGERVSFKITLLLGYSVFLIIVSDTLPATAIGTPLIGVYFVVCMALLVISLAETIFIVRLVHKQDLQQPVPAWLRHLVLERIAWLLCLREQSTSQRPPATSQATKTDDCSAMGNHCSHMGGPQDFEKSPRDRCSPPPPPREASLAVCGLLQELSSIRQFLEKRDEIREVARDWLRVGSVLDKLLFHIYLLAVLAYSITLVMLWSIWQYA
Assay: membrane potential dye fluorescence, FlexStation, transfected HEK293 cells
Conditions: read-out: varenicline EC50
Experimental endpoint: EC50 (nM)

1) c1cnc2cc3c(cc2n1)C1CNCC3C1 :: 2900
